experimental-target: human CYP2A6 enzyme (cytochrome P450 2A6) (Homo sapiens, UniProt P11509)
Sequence (P11509 1-494): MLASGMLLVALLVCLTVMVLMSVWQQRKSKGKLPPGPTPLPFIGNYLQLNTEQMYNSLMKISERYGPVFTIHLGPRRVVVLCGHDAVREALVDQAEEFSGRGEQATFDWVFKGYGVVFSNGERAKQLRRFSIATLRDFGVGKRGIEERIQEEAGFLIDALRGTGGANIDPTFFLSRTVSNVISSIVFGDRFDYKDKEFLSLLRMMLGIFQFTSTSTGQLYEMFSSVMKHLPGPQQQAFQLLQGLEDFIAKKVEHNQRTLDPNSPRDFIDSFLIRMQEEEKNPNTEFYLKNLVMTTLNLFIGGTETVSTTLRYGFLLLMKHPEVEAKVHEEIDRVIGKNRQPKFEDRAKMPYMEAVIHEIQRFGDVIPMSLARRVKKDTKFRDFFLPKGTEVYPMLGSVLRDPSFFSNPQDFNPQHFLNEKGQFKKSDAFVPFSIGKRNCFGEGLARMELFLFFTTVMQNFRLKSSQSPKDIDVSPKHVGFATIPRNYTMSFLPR
pIC50: −log10 of the molar value.
measurement-kind: pIC50

INSERT INTO assay_data (smiles_input, measurement_kind, quantitative_readout) VALUES
  ('Cc1nccn1CCCc1cccnc1', 'pIC50', 5.04);

Data origin: paper PMC8555909
